Consider the following compounds and their measured combination Emax readings.
- Tested on: CAL-29 (Bladder Carcinoma)
- protocol_summary: combination Emax (second highest fraction inhibited in the dose matrix, 72 h); higher = more inhibition; extreme values may be limits of the assay
// return a plain number; no unit text

Cn1cnc2c(F)c(Nc3ccc(Br)cc3Cl)c(C(=O)NOCCO)cc21 [Selumetinib] + CC(C)n1c(=O)n(C)c2cnc3cc(F)c(-c4ccc(OCCCN5CCCCC5)nc4)cc3c21 [AZD1390] (first compound max 10 µM, 7x7, partner max 0.3 µM) | 0.216

# next compound below
Query block: Request: combination Emax, test system CAL-29 (Bladder Carcinoma), entry CN(C)CCCOc1ccc(-c2ccc3ncc4c(c3c2)n(C2CCOCC2)c(=O)n4C)cn1 [AZD0156] + O=C(c1cc(Cc2n[nH]c(=O)c3ccccc23)ccc1F)N1CCN(C(=O)C2CC2)CC1 [Olaparib] (first compound max 3 µM, partner max 3 µM)
Result block: 0.319

====

Consider the following molecules and their measured Bliss excess readings.
- System: ECC10 (Gastric Carcinoma)
- protocol_summary: Bliss excess, mean over the matrix (fraction); higher = more synergy

Known results for molecules:
CC1(C)CCC(CN2CCN(c3ccc(C(=O)NS(=O)(=O)c4ccc(NCC5CCOCC5)c([N+](=O)[O-])c4)c(Oc4cnc5[nH]ccc5c4)c3)CC2)=C(c2ccc(Cl)cc2)C1 [Venetoclax] + C[C@@H]1COCCN1C2=NC(=NC(=C2)C3(CC3)[S@](=N)(=O)C)C4=C5C=CNC5=NC=C4 [AZD6738] (first compound max 1 µM, 7x7, partner max 10 µM) | -0.0132
COc1cccc(OCCCN)c1-c1cc(Nc2cnc(C#N)cn2)n[nH]1 [Prexasertib] + O=C(c1cc(Cc2n[nH]c(=O)c3ccccc23)ccc1F)N1CCN(C(=O)C2CC2)CC1 [Olaparib] (first compound max 1 µM, 7x7, partner max 10 µM) | -0.0685

# next molecule below
Query block: // lookup Bliss excess for O=C(c1cc(Cc2n[nH]c(=O)c3ccccc23)ccc1F)N1CCN(C(=O)C2CC2)CC1 [Olaparib] + CC1(C)CCC(CN2CCN(c3ccc(C(=O)NS(=O)(=O)c4ccc(NCC5CCOCC5)c([N+](=O)[O-])c4)c(Oc4cnc5[nH]ccc5c4)c3)CC2)=C(c2ccc(Cl)cc2)C1 [Venetoclax] (first compound max 10 µM, 7x7, partner max 1 µM)
Result block: 0.0155

====

Consider the following compounds and their measured Bliss excess readings.
- Tested on: KARPAS-422 (B-Cell Non-Hodgkin's Lymphoma)
- protocol_summary: Bliss excess, mean over the matrix (fraction); higher = more synergy
// return a plain number; no unit text

Known results for compounds:
N#Cc1cnc(Nc2cc(NC[C@H]3CNCCO3)c(C(F)(F)F)cn2)cn1 [SRA737] + Nc1ccn([C@@H]2O[C@H](CO)[C@@H](O)C2(F)F)c(=O)n1 [Gemcitabine] (first compound max 10 µM, 7x7, partner max 0.3 µM) | 0.0409
CC1(C)CCC(CN2CCN(c3ccc(C(=O)NS(=O)(=O)c4ccc(NCC5CCOCC5)c([N+](=O)[O-])c4)c(Oc4cnc5[nH]ccc5c4)c3)CC2)=C(c2ccc(Cl)cc2)C1 [Venetoclax] + COc1cc(Nc2ncc3c(n2)-c2ccc(Cl)cc2C(c2c(F)cccc2OC)=NC3)ccc1C(=O)O [Alisertib] (first compound max 1 µM, 7x7, partner max 10 µM) | 0.137

# next compound below
Query block: // lookup Bliss excess for Cc1c2c(nn1C)CSCc1cc(n(C)n1)CSc1cc(c3ccccc3c1)OCCCc1c(C(=O)O)n(C)c3c-2c(Cl)ccc13 [AZD5991] + CC(=O)O[C@H]1C(=O)[C@@]2(C)[C@H]([C@H](OC(=O)c3ccccc3)[C@]3(O)C[C@H](OC(=O)[C@H](O)[C@@H](NC(=O)c4ccccc4)c4ccccc4)C(C)=C1C3(C)C)[C@]1(OC(C)=O)CO[C@@H]1C[C@@H]2O [Paclitaxel] (first compound max 1 µM, 7x7, partner max 3 µM)
Result block: 0.0084
